The measured values listed here are drawn from patent US8034580B2.

Listing: sensitivity of selected molecules
# Test system: microorganism of Delvotest® MCS test medium
# Method description: Delvotest MCS microbial inhibition test, sensitivity for different antibiotics, plate test or tube test (Example 2)
# Type: cell-based
# Condition description: indicator Bromothymol Blue (160 mg·l^−1); plate test; experiment # 5
Endpoint label: sensitivity (ppb)

molecule="Cc1onc(-c2ccccc2Cl)c1C(=O)N[C@@H]1C(=O)N2[C@@H]1SC(C)(C)[C@@H]2C(=O)O [Cloxacillin]" unit_tag=ppb result=10
molecule="Nc1ccc(S(=O)(=O)Nc2ncccn2)cc1 [Sulfadiazine]" unit_tag=ppb result=50
molecule="CC(=O)OCC1=C(C(=O)O)N2C(=O)[C@@H](NC(=O)CSc3ccncc3)[C@H]2SC1 [Cephapirin]" unit_tag=ppb result=2
molecule="CC1(C)S[C@@H]2[C@H](NC(=O)[C@H](N)c3ccccc3)C(=O)N2[C@H]1C(=O)O [Ampicillin]" unit_tag=ppb result=2

* * *

Listing: sensitivity of selected compounds
# System: microorganism of Delvotest® MCS test medium
# Method description: Delvotest MCS microbial inhibition test, sensitivity for different antibiotics, plate test or tube test (Example 2)
# Type: cell-based
# Condition description: indicator Bromothymol Blue (160 mg·l^−1); plate test; experiment # 3
Endpoint label: sensitivity (ppb)

structure_string=Cc1onc(-c2ccccc2Cl)c1C(=O)N[C@@H]1C(=O)N2[C@@H]1SC(C)(C)[C@@H]2C(=O)O result=10
structure_string=CC1(C)S[C@@H]2[C@H](NC(=O)[C@H](N)c3ccccc3)C(=O)N2[C@H]1C(=O)O result=2
structure_string=CC1(C)S[C@@H]2[C@H](NC(=O)[C@H](N)c3ccc(O)cc3)C(=O)N2[C@H]1C(=O)O result=2
structure_string=Nc1ccc(S(=O)(=O)Nc2ncccn2)cc1 result=50
structure_string=CC1(C)S[C@@H]2[C@H](NC(=O)Cc3ccccc3)C(=O)N2[C@H]1C(=O)O result=1
structure_string=CC(=O)OCC1=C(C(=O)O)N2C(=O)[C@@H](NC(=O)CSc3ccncc3)[C@H]2SC1 result=4
